study.system: T1, Human IL-23 (human, UniProt Q9NPF7 20-189; P29460 23-328)
T1 sequence (looked up) 1: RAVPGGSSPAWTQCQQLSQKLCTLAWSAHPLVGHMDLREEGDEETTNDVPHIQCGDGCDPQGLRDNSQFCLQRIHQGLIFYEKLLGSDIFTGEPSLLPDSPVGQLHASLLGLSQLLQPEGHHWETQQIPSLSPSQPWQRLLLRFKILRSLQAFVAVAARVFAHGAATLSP
T1 sequence (looked up) 2: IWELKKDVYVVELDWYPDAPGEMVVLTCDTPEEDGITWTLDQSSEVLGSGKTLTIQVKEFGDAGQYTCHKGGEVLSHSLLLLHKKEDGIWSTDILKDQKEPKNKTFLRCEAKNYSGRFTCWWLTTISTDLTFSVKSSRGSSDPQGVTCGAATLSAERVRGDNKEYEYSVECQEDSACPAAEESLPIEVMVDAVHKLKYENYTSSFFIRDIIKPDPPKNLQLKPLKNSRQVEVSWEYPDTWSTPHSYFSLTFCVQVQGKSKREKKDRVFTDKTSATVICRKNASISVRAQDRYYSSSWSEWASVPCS
test: cell-based or functional assay
property.measured: pSTAT3 IC50 (nM)
Numbers only; they are read as nM.

// recorded pSTAT3 IC50 (nM) for Anti-IL-23 Adnectin 1454C03 (designed binder, 10Fn3-based Adnectin expressed in E. coli followed by a HIS6 tag; Fn3 domain is positions 3-96 of the entry) MGVSDVPRDLEVVAATPTSLLISWDMYYPYSRYYRITYGETGGNSPVQEFTVPKEYDTATISGLKPGVDYTITVYAVTSSYKYDMQYSPISINYRTEIDKPSQHHHHHH : 0.44

Kindly note the recorded pSTAT3 IC50 (nM) for Anti-IL-23 Adnectin 1454D02 (designed binder, 10Fn3-based Adnectin expressed in E. coli followed by a HIS6 tag (captured by anti-His mAb in SPR)) MGVSDVPRDLEVVAATPTSLLISWDHDYPYRRYYRITYGETGGNSPVQEFTVPRNINTATISGLKPGVDYTITVYAVTSSYKYDMQYSPISINYRTEIDKPSQHHHHHH , which is 0.48

So, Anti-IL-23 Adnectin 1454B08 (designed binder, 10Fn3-based Adnectin expressed in E. coli followed by a HIS6 tag; Fn3 domain is positions 3-96 of the entry; also called Parent) MGVSDVPRDLEVVAATPTSLLISWEHDYPYRRYYRITYGETGGNSPVQEFTVPKDVDTATISGLKPGVDYTITVYAVTSSYKYDMQYSPISINYRTEIDKPSQHHHHHH ? Its pSTAT3 IC50 (nM) was 0.3

Form field pSTAT3 IC50 (nM), entry Anti-IL-23 Adnectin 1866F10 (designed binder) MGVSDVPRDLEVVAATPTSLLISWDHDYPYRRYYRITYGETGGNSPVQEFTVPRNINTATISGLKPGVDYTITVYAVTSTLKYDIQYSPISINYRTEIDKPSQHHHHHH : 0.06
